Molecular target: T1, KRAS G12D peptide on HLA-A*11:01 (human)
T1 peptide: VVVGADGVGK
Experiment: CD137 by flow cytometry; transduced primary CD4+ and CD8+ T cells, TRAC/TRBC wild type; G12D peptide titrated (FIG. 3C); full-length, on cells
Assign EC50 of peptide to each entry below.
Show the value, then the unit it is measured in.

Task: Which EC50 of peptide is listed for TCR2 (TCR, V domains shown) Valpha: AQTVTQSQPEMSVQEAETVTLSCTYDTSENNYYLFWYKQPPSRQMILVIRQEAYKQQNATENRFSVNFQKAAKSFSLKISDSQLGDTAMYFCAFMYPSQGGSEKLVFGKGMKLTVNP Vbeta: ETGVTQSPTHLIKTRGQQVTLRCSSQSGHNTVSWYQQALGQGPQFIFQYYREEENGRGNFPPRFSGLQFPNYSSELNVNALELDDSALYLCASSSPGFRSYGYTFGSGTRLTVV ?
Result: 31.6 nM

Task: Any idea what EC50 of peptide was measured for TCR4 (TCR, V domains shown) Valpha: QKEVEQDPGPLSVPEGAIVSLNCTYSNSAFQYFMWYRQYSRKGPELLMYTYSSGNKEDGRFTAQVDKSSKYISLFIRDSQPSDSATYLCAMGALNSGAGSYQLTFGKGTKLSVIP Vbeta: KAGVTQTPRYLIKTRGQQVTLSCSPISGHRSVSWYQQTPGQGLQFLFEYFSETQRNKGNFPGRFSGRQFSNSRSEMNVSTLELGDSALYLCASSLSSGTGTEAFFGQGTRLTVE ?
Result: 49.8 nM

Task: Can you look up the measured EC50 of peptide of TCR5 (TCR, V domains shown) Valpha: GEDVEQSLFLSVREGDSSVINCTYTDSSSTYLYWYKQEPGAGLQLLTYIFSNMDMKQDQRLTVLLNKKDKHLSLRIADTQTGDSAIYFCAERDAGNNRKLIWGLGTSLAVNP Vbeta: GAGVSQSPRYKVAKRGQDVALRCDPISGHVSLFWYQQALGQGPEFLTYFQNEAQLDKSGLPSDRFFAERPEGSVSTLKIQRTQQEDSAVYLCASSLEGGDTQYFGPGTRLTVL for me?
Result: 36.3 nM

Task: For the binder shown here, TCR91 (TCR, V domains shown) Valpha: AQKVTQAQTEISVVEKEDVTLDCVYETRDTTYYLFWYKQPPSGELVFLIRRNSFDEQNEISGRYSWNFQKSTSSFNFTITASQVVDSAVYFCALNEGGGSTLGRLYFGRGTQLTVWP Vbeta: DAMVIQNPRYQVTQFGKPVTLSCSQTLNHNVMYWYQQKSSQAPKLLFHYYDKDFNNEADTPDNFQSRRPNTSFCFLDIRSPGLGDAAMYLCATSTGRVYQPQHFGDGTRLSIL , give the reported EC50 of peptide.
Result: 131 nM

Data provenance is patent US20260027208A1.
